- Tested on: COG-LL-317
- test-method-notes: selective drug sensitivity score (sDSS, relative to normal bone marrow) (sDSS (score)); higher = more potent and effective on the cell line relative to normal bone marrow cells;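 further: ALL cell lines in 384-well plates, five doses spanning 10,000-fold, each plate scaled between vehicle and 100 µmol/L benzalkonium chloride controls, sDSS an adapted area-under-curve metric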
- condition-parameters: 72 h
reported-metric: selective drug sensitivity score
Reply with the value as a number alone.

compound: CCCCc1nc2cc(/C=C/C(=O)NO)ccc2n1CCN(CC)CC [Pracinostat] (top concentration 10000 nM)
system-name: COG-LL-317
selective drug sensitivity score: 3.88
--
compound: C#Cc1cccc(Nc2ncnc3cc4c(cc23)OCCOCCOCCO4)c1 [Icotinib] (top concentration 10000 nM)
system-name: COG-LL-317
selective drug sensitivity score: 0
--
compound: CNC(=O)CN1CCC(Oc2cc3c(Nc4cccc(Cl)c4F)ncnc3cc2OC)CC1 [Sapitinib] (top concentration 1000 nM)
system-name: COG-LL-317
selective drug sensitivity score: 0
--
compound: CC1=C2C[C@H]3[C@@H](CC[C@@H]4C[C@H](NS(C)(=O)=O)CC[C@@]43C)[C@@H]2CC[C@@]2(C1)O[C@@H]1C[C@H](C)CN[C@H]1[C@H]2C [Saridegib] (top concentration 10000 nM)
system-name: COG-LL-317
selective drug sensitivity score: -1.16
--
compound: NC(=O)c1cccc(-c2cccc(OC(=O)NC3CCCCC3)c2)c1 [URB597] (top concentration 1000 nM)
system-name: COG-LL-317
selective drug sensitivity score: -0.46
--
compound: CCCOc1ccn2c(C(C)=O)cc(-c3ccccc3S(C)(=O)=O)c2c1 [GSK2801] (top concentration 10000 nM)
system-name: COG-LL-317
selective drug sensitivity score: 0.84
--
compound: C[C@]1(c2nc3c(C(N)=O)cccc3[nH]2)CCCN1 [Veliparib] (top concentration 10000 nM)
system-name: COG-LL-317
selective drug sensitivity score: 1.72
--
compound: Nc1ccn([C@@H]2O[C@H](CO)[C@@H](O)[C@@H]2O)c(=O)n1 [Cytarabine] (top concentration 10000 nM)
system-name: COG-LL-317
selective drug sensitivity score: 27.2
--
compound: CC(C)n1cnc2c(NCCc3ccc(O)cc3)nc(-c3csc4ccccc34)nc21 [StemRegenin_1] (top concentration 10000 nM)
system-name: COG-LL-317
selective drug sensitivity score: -0.3
--
compound: Cn1nnc2c(C(N)=O)ncn2c1=O [Temozolomide] (top concentration 100000 nM)
system-name: COG-LL-317
selective drug sensitivity score: -0.04

-- ask Record request: selective drug sensitivity score value, item Cc1cc(-c2nc(-c3ccc(OC(F)(F)F)cc3)no2)nn1Cc1ccnc(N2CCN(C3CC3)CC2)c1 [BAY_87-2243] (top concentration 1000 nM)
-- reply -0.96

-- ask Could you share which selective drug sensitivity score value was measured for CCn1c(-c2nonc2N)nc2cnc(Oc3cccc(NC(=O)c4ccc(OCCN5CCOCC5)cc4)c3)cc21 (top concentration 10000 nM) ?
-- reply 7.46

-- ask What value of selective drug sensitivity score has been reported for the following compound? C[C@]12CC[C@@H]3c4ccc(O)cc4C[C@@H](CCCCCCCCC[S+]([O-])CCCC(F)(F)C(F)(F)F)[C@H]3[C@@H]1CC[C@@H]2O (stereo partly drawn) [Fulvestrant] (top concentration 1000 nM)
-- reply 0

====

- Tested on: KARPAS-45
- test-method-notes: selective drug sensitivity score (sDSS, relative to normal bone marrow) (sDSS (score)); higher = more potent and effective on the cell line relative to normal bone marrow cells
- condition-parameters: 72 h
reported-metric: selective drug sensitivity score
Form rule: numeric answer, no unit written next to it.

compound: CC1(C)NC(=O)N(c2ccc([N+](=O)[O-])c(C(F)(F)F)c2)C1=O [Nilutamide] (top concentration 10000 nM)
system-name: KARPAS-45
reported-metric: selective drug sensitivity score
reported-measurement: -0.48

compound: Cc1ccc(C(=O)Nc2ccc(Oc3cc4cnn(C)c4cc3-c3cn[nH]c3)c(F)c2)c(=O)n1-c1ccc(F)cc1 [Merestinib] (top concentration 1000 nM)
system-name: KARPAS-45
reported-metric: selective drug sensitivity score
reported-measurement: -0.62

compound: COc1ccccc1S(=O)(=O)Nc1ccc2c(c1)CN(C)C(=O)N2 [PFI-1] (top concentration 30000 nM)
system-name: KARPAS-45
reported-metric: selective drug sensitivity score
reported-measurement: 3.1

compound: O=C(Nc1cc(Oc2cc(F)c(NC(=O)C3(C(=O)Nc4ccc(F)cc4)CC3)cc2F)ccn1)C1CC1 [Altiratinib] (top concentration 10000 nM)
system-name: KARPAS-45
reported-metric: selective drug sensitivity score
reported-measurement: 2.74

compound: CCN1CCN(Cc2ccc(Nc3ncc(F)c(-c4cc(F)c5nc(C)n(C(C)C)c5c4)n3)nc2)CC1 [Abemaciclib] (top concentration 2500 nM)
system-name: KARPAS-45
reported-metric: selective drug sensitivity score
reported-measurement: -4.66

-- ask Given the entry COc1cc2ncnc(Nc3cccc(Cl)c3F)c2cc1OC(=O)N1CCN(C)C[C@H]1C [AZD3759] (top concentration 1000 nM) , report its measured selective drug sensitivity score.
-- reply -0.04

-- ask Please give the measured selective drug sensitivity score for this compound: CNC(=O)c1nn(C)c2c1C(C)(C)Cc1cnc(Nc3ccc(N4CCN(C)CC4)cc3)nc1-2 [Milciclib] (top concentration 10000 nM)
-- reply 5.04

-- ask Would you kindly share the measured selective drug sensitivity score for C=CC(=O)N1CCC[C@@H](n2nc(-c3ccc(Oc4ccccc4)cc3)c3c(N)ncnc32)C1 [Ibrutinib] (top concentration 1000 nM) ?
-- reply 3.4

-- ask Fill in the blank: the reported selective drug sensitivity score of COc1cc(C)[nH]c(=O)c1CNC(=O)c1c(C)n([C@H](C)C2CCOCC2)c2ccccc12 [CPI-360] (top concentration 10000 nM) is ____.
-- reply 0

-- ask Give the measured selective drug sensitivity score of Nc1nc(F)nc2c1ncn2[C@@H]1O[C@H](CO)[C@@H](O)[C@@H]1O [Fludarabine] (top concentration 10000 nM) .
-- reply -10.3

-- ask Using the record for CNC(=O)c1cc(Oc2ccc(NC(=O)Nc3ccc(Cl)c(C(F)(F)F)c3)cc2)ccn1 [Sorafenib] (top concentration 1000 nM) , report its selective drug sensitivity score.
-- reply 0.5

-- ask Give its selective drug sensitivity score value. Item: O=C1c2c(O)ccc(O)c2C(=O)c2c(NCCNCCO)ccc(NCCNCCO)c21 [Mitoxantrone] (top concentration 1000 nM)
-- reply -1.66

-- ask Would you mind telling me what selective drug sensitivity score value was observed for CC[C@H](Nc1ncnc2[nH]cnc12)c1nc2cccc(F)c2c(=O)n1-c1ccccc1 [Idelalisib] (top concentration 10000 nM) ?
-- reply 1.54

-- ask # input compound: O=c1[nH]cc(F)c(=O)[nH]1 [Fluorouracil] (top concentration 10000 nM) ; wanted: its selective drug sensitivity score
-- reply 0.46

-- ask For Cn1ncc(Cl)c1-c1cc(C(=O)N[C@H](CN)Cc2cccc(F)c2)sc1Cl [Afuresertib] (top concentration 1000 nM) , what is its reported selective drug sensitivity score?
-- reply 3.06

-- ask Which value of selective drug sensitivity score has been reported for CC[C@]12C=CCN3CC[C@@]4(c5cc([C@@]6(C(=O)OC)C[C@@H]7C[C@@H](C(C)(F)F)CN(Cc8c6[nH]c6ccccc86)C7)c(OC)cc5N(C)[C@H]4[C@@](O)(C(=O)OC)[C@@H]1OC(C)=O)[C@@H]32 [Vinflunine] (top concentration 1000 nM) in the records?
-- reply 4.48

-- ask # input compound: Cn1nnc2c(C(N)=O)ncn2c1=O [Temozolomide] (top concentration 100000 nM) ; wanted: its selective drug sensitivity score
-- reply 5.76

-- ask Recorded selective drug sensitivity score for COc1cc(N2CCC(N3CCN(C)CC3)CC2)ccc1Nc1ncc(Cl)c(Nc2ccccc2P(C)(C)=O)n1 [Brigatinib] (top concentration 1000 nM) , please?
-- reply -1.74

-- ask Return reported selective drug sensitivity score; argument: O=C(Nc1ccncc1)C(=O)c1cn(Cc2ccc(Cl)cc2)c2ccccc12 [Indibulin] (top concentration 10000 nM)
-- reply 6.84

-- ask Could you tell me which selective drug sensitivity score is on file for C[C@]12CC[C@H](O)CC1=CC[C@@H]1[C@@H]2CC[C@]2(C)C(c3cccnc3)=CC[C@@H]12 [Abiraterone] (top concentration 5000 nM) ?
-- reply -0.12

-- ask What does the data say about its selective drug sensitivity score? Entry: O=C(NC1CCNCC1)c1n[nH]cc1NC(=O)c1c(Cl)cccc1Cl [AT7519] (top concentration 10000 nM)
-- reply -4.16

-- ask // lookup selective drug sensitivity score for COc1cc(N2CCC(N3CCN(C)CC3)CC2)ccc1Nc1ncnc(Nc2ccccc2S(=O)(=O)C(C)C)n1 [ASP3026] (top concentration 10000 nM)
-- reply 0.56

====

- Test system: KASUMI-2
- test-method-notes: selective drug sensitivity score (sDSS, relative to normal bone marrow) (sDSS (score)); higher = more potent and effective on the cell line relative to normal bone marrow cells
- condition-parameters: 72 h
Short version: selective drug sensitivity score at least -0.5 is Criterion met, less is Criterion not met.

Reference set (5 entries):
molecule: CC(C)c1cc(C(=O)N2Cc3ccc(CN4CCN(C)CC4)cc3C2)c(O)cc1O [Onalespib] (top concentration 2500 nM)
class-name: Criterion met
//
molecule: CC1(C)NC(=O)N(c2ccc([N+](=O)[O-])c(C(F)(F)F)c2)C1=O [Nilutamide] (top concentration 10000 nM)
class-name: Criterion met
//
molecule: Cc1nc(Nc2ncc(C(=O)Nc3c(C)cccc3Cl)s2)cc(N2CCN(CCO)CC2)n1 [Dasatinib] (top concentration 1000 nM)
class-name: Criterion not met
//
molecule: COCCNCc1ccc(-c2cc3nccc(Oc4ccc(NC(=S)NC(=O)Cc5ccc(F)cc5)cc4F)c3s2)nc1 [Glesatinib] (top concentration 2500 nM)
class-name: Criterion met
//
molecule: CCN(CC)CCCC(C)Nc1ccnc2cc(Cl)ccc12 (stereo unspecified) [Chloroquine] (top concentration 100000 nM)
class-name: Criterion not met

-- ask Kindly determine if selective drug sensitivity score recorded for CC1=C2C[C@H]3[C@@H](CC[C@@H]4C[C@H](NS(C)(=O)=O)CC[C@@]43C)[C@@H]2CC[C@@]2(C1)O[C@@H]1C[C@H](C)CN[C@H]1[C@H]2C [Saridegib] (top concentration 10000 nM) is above or exactly -0.5.
-- reply Criterion met
